Give pIC50 for every item shown.
System: CEM cells HIV-1 protection, formazan growth assay
Test: NCI AIDS Antiviral Assay
Details: measured here: growth of uninfected CEM cells
Method: The ability of compounds to protect human CEM cells from HIV-1 infection is measured as a screen for new compounds capable of inhibiting the HIV virus. Five concentrations of drug were tested on uninfected and infected cells and cell growth was measured using a soluble formazan assay. […] Compounds that provided at least 50% protection were retested. Compounds that provided at least 50% protection on retest were listed as moderately active. […]
pIC50: −log10 of the molar value.

Cc1ccc2c(c1)C(C1Cc3cccc(C)c3C1=O)OC2=O (stereo not drawn)
< 3.70
CCOC(=O)/C(F)=C/c1ccc(OC)cc1
< 3.94

Here is another molecule to look at.
Notebook: pull reported pIC50 for CEM cells HIV-1 protection, formazan growth assay, entry C/C=C1\CC2C(=O)CCC2C2c3ccccc3OC12 (stereo not drawn)
< 3.70
